- system: androgen receptor (Homo sapiens, UniProt P10275, T878A)
- Construct: host or cells: LNCaP.FGC
- Sequence (P10275 whole entry T878A): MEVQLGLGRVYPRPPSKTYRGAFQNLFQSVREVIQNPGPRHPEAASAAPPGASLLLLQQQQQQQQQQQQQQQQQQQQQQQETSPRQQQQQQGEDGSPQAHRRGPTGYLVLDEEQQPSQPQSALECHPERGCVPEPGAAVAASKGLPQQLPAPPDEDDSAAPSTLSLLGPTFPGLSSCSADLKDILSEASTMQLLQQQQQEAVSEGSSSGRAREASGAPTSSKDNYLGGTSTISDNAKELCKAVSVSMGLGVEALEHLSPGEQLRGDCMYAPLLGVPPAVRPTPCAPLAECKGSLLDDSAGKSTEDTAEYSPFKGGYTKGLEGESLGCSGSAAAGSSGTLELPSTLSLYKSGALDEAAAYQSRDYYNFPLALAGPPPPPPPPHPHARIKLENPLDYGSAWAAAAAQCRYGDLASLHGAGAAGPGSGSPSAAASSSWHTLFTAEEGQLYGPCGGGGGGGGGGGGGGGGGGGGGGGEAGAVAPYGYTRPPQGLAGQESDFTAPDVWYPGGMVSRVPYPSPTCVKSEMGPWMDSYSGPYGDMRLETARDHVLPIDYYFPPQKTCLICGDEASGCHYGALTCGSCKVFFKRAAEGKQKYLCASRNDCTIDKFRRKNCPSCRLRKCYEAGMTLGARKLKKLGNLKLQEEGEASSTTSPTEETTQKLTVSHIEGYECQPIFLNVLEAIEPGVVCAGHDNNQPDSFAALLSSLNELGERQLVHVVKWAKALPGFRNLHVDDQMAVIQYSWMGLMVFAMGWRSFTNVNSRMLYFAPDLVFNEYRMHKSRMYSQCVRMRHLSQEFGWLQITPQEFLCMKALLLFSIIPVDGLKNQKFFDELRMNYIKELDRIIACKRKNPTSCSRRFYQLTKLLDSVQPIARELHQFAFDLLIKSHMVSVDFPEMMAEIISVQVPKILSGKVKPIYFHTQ
- Sequence (Q96SW2 whole entry partner): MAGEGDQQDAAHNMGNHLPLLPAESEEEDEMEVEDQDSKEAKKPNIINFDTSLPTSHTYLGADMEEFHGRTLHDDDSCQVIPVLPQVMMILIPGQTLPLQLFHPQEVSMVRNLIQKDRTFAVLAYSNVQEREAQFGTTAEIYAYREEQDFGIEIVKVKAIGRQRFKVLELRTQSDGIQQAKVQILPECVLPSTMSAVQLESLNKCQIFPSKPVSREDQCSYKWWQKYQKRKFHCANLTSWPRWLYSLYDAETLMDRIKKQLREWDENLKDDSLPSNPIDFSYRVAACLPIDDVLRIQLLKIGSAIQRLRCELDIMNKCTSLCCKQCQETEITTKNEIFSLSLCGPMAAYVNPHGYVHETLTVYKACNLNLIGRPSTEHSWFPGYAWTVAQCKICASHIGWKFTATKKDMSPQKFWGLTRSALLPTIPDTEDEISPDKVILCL
- procedure_text: Androgen receptor degradation assay using Western blot analysis
- Format: cell-based
- condition_parameters: 24 h, read-out: Androgen Receptor Remaining (%), LNCaP.FGC cells, 100 nM, 24 hr, normalized to GAPDH, untreated cells = 100%
hey, just use yes if measured remaining activity at 0.1 µM is less than 30%, otherwise no

Incoming: Record CCn1c2c(c3ccc(OCCN4CCC(C5CCN(c6ccc(C(=O)N[C@H]7CC[C@H](Oc8ccc(C#N)c(Cl)c8)CC7)nn6)CC5)CC4)cc31)C(=O)N(C1CCC(=O)NC1=O)C2=O (stereo partly shown) [Compound 158] : is its remaining activity at 0.1 µM strictly below 30%?
Outgoing: yes

Incoming: Hi there! Is remaining activity at 0.1 µM for CCn1c2c(c3ccc(OCCOCC4CCN(c5ccc(C(=O)N[C@H]6CC[C@H](N(C)c7ccc(C#N)c(Cl)c7)CC6)nn5)CC4)cc31)C(=O)N(C1CCC(=O)NC1=O)C2=O (stereo partly shown) [Compound 137] below 30%, do you know?
Outgoing: yes

Incoming: Confirm or reject: remaining activity at 0.1 µM of CCn1c2c(c3ccc(OCCCCN4CCN(c5ccc(C(=O)N[C@H]6CC[C@H](Oc7ccc(C#N)c(Cl)c7)CC6)nn5)CC4=O)cc31)C(=O)N(C1CCC(=O)NC1=O)C2=O (stereo partly shown) [Compound 149] lies strictly below 30%
Outgoing: yes

Incoming: Is remaining activity at 0.1 µM strictly under 30% for the entry CCn1c2c(c3ccc(OCC(=O)N4CC5(CCN(c6ccc(C(=O)N[C@H]7CC[C@H](N(C)c8ccc(C#N)c(Cl)c8)CC7)nn6)C5)C4)cc31)C(=O)N(C1CCC(=O)N(CO)C1=O)C2=O (stereo partly shown) [Compound 145] ?
Outgoing: no

Incoming: Does the reported remaining activity at 0.1 µM of CCn1c2c(c3ccc(OCCCCN4CCN(c5ccc(C(=O)N[C@H]6CC[C@H](N(C)c7ccc(C#N)c(Cl)c7)CC6)nn5)CC4=O)cc31)C(=O)N(C1CCC(=O)NC1=O)C2=O (stereo partly shown) [Compound 150] stay below 30%?
Outgoing: no

Incoming: hey, is remaining activity at 0.1 µM for CCn1c2c(c3ccc(OCC(=O)N4CCC5(CC4)CN(c4ccc(C(=O)N[C@H]6CC[C@H](Oc7ccc(C#N)c(Cl)c7)CC6)nn4)C5)cc31)C(=O)N(C1CCC(=O)NC1=O)C2=O (stereo partly shown) [Compound 123] lower than 30% or not?
Outgoing: no

Incoming: remaining activity at 0.1 µM strictly < 30% for this molecule? CCn1c2c(c3ccc(OCC(=O)N4CCCN(c5ccc(C(=O)N[C@H]6CC[C@H](N(C)c7ccc(C#N)c(Cl)c7)CC6)nn5)CC4)cc31)C(=O)N(C1CCC(=O)NC1=O)C2=O (stereo partly shown) [Compound 131]
Outgoing: no

Incoming: Please indicate whether the reported remaining activity at 0.1 µM of CC[C@H]1CN(CCOc2ccc3c4c(n(CC)c3c2)C(=O)N(C2CCC(=O)NC2=O)C4=O)CCN1c1ccc(C(=O)N[C@H]2CC[C@H](Oc3ccc(C#N)c(Cl)c3)CC2)nn1 (stereo partly shown) [Compound 58] is strictly below 30%.
Outgoing: no

Incoming: # TODO verify remaining activity at 0.1 µM < 30% strictly for this molecule: CCn1c2c(c3ccc(OCCN4CCN(c5ccc(N6C(=S)N(c7ccc(C#N)c(C(F)(F)F)c7)C(=O)C6(C)C)cc5)CC4)cc31)C(=O)N(C1CCC(=O)NC1=O)C2=O (stereo not shown) [Compound 118]
Outgoing: no

Incoming: Is it true that remaining activity at 0.1 µM reported for CCn1c2c(c3ccc(OCCOCC4CCN(c5ccc(C(=O)N[C@H]6CC[C@H](Oc7ccc(C#N)c(Cl)c7)CC6)nn5)CC4)cc31)C(=O)N(C1CCC(=O)NC1=O)C2=O (stereo partly shown) [Compound 138] is less than 30%?
Outgoing: no

The measured values listed here are drawn from patent US20250197409A1.
